Each entry below carries its recorded 细胞结合百分率 (percent of cells bound).
Molecular target: T1, BCMA on the surface of BCMA-positive cell lines H929 (NCI-H929) and RPMI8226 (human, UniProt Q02223 1-184)
T1 construct: whole, on cells; Endogenous BCMA of the cell lines; also called 细胞膜表面的BCMA抗原
T1 sequence (looked up): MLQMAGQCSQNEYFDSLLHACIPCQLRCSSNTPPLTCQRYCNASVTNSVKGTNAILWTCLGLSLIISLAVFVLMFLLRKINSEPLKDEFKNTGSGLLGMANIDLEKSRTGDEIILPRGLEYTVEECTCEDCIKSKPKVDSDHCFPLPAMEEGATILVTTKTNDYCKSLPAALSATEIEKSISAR
Assay: flow cytometry on RPMI8226 cells
Expressed in %, but write only the number.

>>> numericreadout("B10.4 (affinity-matured mutant of B10) (scFv, also called 突变体B10.4) scFv: QVQLQQSGAEVKKPGSSVKVSCKASGGTFSKSAIMWVRQAPGQGLEWMGGVIPIFGTANYAQKFQGRVTITADESTSTAYMELSSLRSEDTAVYYCARGWYLDLWGRGTLVTVSSGGSSRSSSSGGGGSGGGGLPVLTQPPSASGTPGQRVTISCSGSSNNIGGYSVNWYQQFPGTAPKLLIYRNNQRPSGVPDRFSGSKSGASASLAISGLQSEDEADYYCAAWDDSVIGWLFGTGTQLTVL")
57.5
>>> numericreadout("B10.9 (affinity-matured mutant of B10) (scFv, also called 突变体B10.9) scFv: QVQLQQSGAEVKKPGSSVKVSCKASGGTFSKSAIQWVRQAPGQGLEWMGGVIPIFGTANYAQKFQGRVTITADESTSTAYMELSSLRSEDTAVYYCARGWYLDLWGRGTLVTVSSGGSSRSSSSGGGGSGGGGLPVLTQPPSASGTPGQRVTISCSGSSNNIGGYSVNWYQQFPGTAPKLLIYRNNQRPSGVPDRFSGSKSGASASLAISGLQSEDEADYYCAAWDDSEIGWLFGTGTQLTVL")
42.9
>>> numericreadout("B10.5 (affinity-matured mutant of B10) (scFv, also called 突变体B10.5) scFv: QVQLQQSGAEVKKPGSSVKVSCKASGGTFSKSAIHWVRQAPGQGLEWMGGVIPIFGTANYAQKFQGRVTITADESTSTAYMELSSLRSEDTAVYYCARGWYLDLWGRGTLVTVSSGGSSRSSSSGGGGSGGGGLPVLTQPPSASGTPGQRVTISCSGSSSNIGGYSVNWYQQFPGTAPKLLIYRNNQRPSGVPDRFSGSKSGASASLAISGLQSEDVADYYCAAWDDSLIGYVFGTGTQLTVL")
58.2

// next entry
Incoming: Recorded 细胞结合百分率 (percent of cells bound) for B10 parental antibody as expressed and purified in Example 3 (antibody, V domains shown, also called 亲本B10; B10亲本抗体) VH: QVQLQQSGAEVKKPGSSVKVSCKASGGTFSSYAISWVRQAPGQGLEWMGGIIPIFGTANYAQKFQGRVTITADESTSTAYMELSSLRSEDTAVYYCARGWYFDLWGRGTLVTVSS VL: LPVLTQPPSASGTPGQRVTISCSGSSSNIGGYSVNWYQQFPGTAPKLLIYRNNQRPSGVPDRFSGSKSGASASLAISGLQSEDEADYYCAAWDDSLIGYVFGTGTQLTVL , please?
Outgoing: 5.54
